# Organism: Rattus norvegicus
# ASSAY_PROCEDURE: DrugMatrix - Regimen: Daily Repeat
# Type: toxicity, organism-based, Sprague-Dawley
# Set-up: regimen Daily Repeat, gender Male, age 6-8 weeks
# MEASUREMENT_CONTEXT: in vivo, po, 10 mg/kg, 120 h, tissue Plasma, route oral GAVAGE, dose level Low, time 5 day, vehicle .5 % CMC
Please go through the items and note down their CHLORIDE.
Response body: numeric value in MEQ/L, unit text excluded.

Input: Using the record for CNCCC(Oc1ccc(C(F)(F)F)cc1)c1ccccc1 (centres undefined) [FLUOXETINE] , state its measured CHLORIDE.
Output: 97.67

Input: Please report CHLORIDE for the following molecule: O=C1C(CC[S+]([O-])c2ccccc2)C(=O)N(c2ccccc2)N1c1ccccc1 (centres undefined) [SULFINPYRAZONE]
Output: 102

Input: Specify CHLORIDE for Fc1ccc(C(c2ccc(F)cc2)N2CCN(C/C=C/c3ccccc3)CC2)cc1 [FLUNARIZINE] and stop.
Output: 103.67

Input: Answer with reported CHLORIDE of O=C1CN=C(c2ccccc2Cl)c2cc([N+](=O)[O-])ccc2N1 [CLONAZEPAM]
Output: 98.67

----------
Assign CHLORIDE to each entry below.
# Organism: Rattus norvegicus
# ASSAY_PROCEDURE: DrugMatrix - Regimen: Daily Repeat
# Format: toxicity, organism-based, Sprague-Dawley
# Design: regimen Daily Repeat, gender Male, age 6-8 weeks
# MEASUREMENT_CONTEXT: in vivo, po, 50 mg/kg, 120 h, tissue Plasma, route oral GAVAGE, dose level Low, time 5 day, vehicle .5 % CMC
Could you give me the number in MEQ/L? Just the number is fine.

Input: Dear colleague, please send me the reported CHLORIDE for NC1CCN(c2nc3c(cc2F)c(=O)c(C(=O)O)cn3-c2ccc(F)cc2F)C1 (centres undefined) [TOSUFLOXACIN] when you can.
Output: 108

Input: Could you please provide reported CHLORIDE for CN(C)[C@@H]1C(O)=C(C(N)=O)C(=O)[C@@]2(O)C(O)=C3C(=O)c4c(O)ccc(Cl)c4[C@@](C)(O)[C@H]3C[C@@H]12 [CHLORTETRACYCLINE] ? Thanks!
Output: 103.33

Input: State, in one line, measured CHLORIDE of CCN1CCC[C@H]1CNC(=O)c1cc(S(N)(=O)=O)ccc1OC [LEVOSULPIRIDE]
Output: 106

Input: Tell me measured CHLORIDE for Cc1cccc(C)c1OCC(C)N (centres undefined) [MEXILETINE] please.
Output: 106.67

----------
I'd appreciate it if you could supply ERYTHROCYTE COUNT values for the items below.
# Organism: Rattus norvegicus
# ASSAY_PROCEDURE: DrugMatrix - Regimen: Daily Repeat
# Assay type: toxicity, organism-based, Sprague-Dawley
# Design: regimen Daily Repeat, gender Male, age 6-8 weeks
# MEASUREMENT_CONTEXT: in vivo, sc, 0 mg/kg, 72 h, tissue Blood, route subcutaneous, dose level Control, time 3 day, […]
State just the number; it will be interpreted in x10E6/uL.

Input: Supply ERYTHROCYTE COUNT value. Item: CC(C)(C)CC(C)(C)c1ccc(OCCOCC[N+](C)(C)Cc2ccccc2)cc1.[Cl-] [BENZETHONIUM CHLORIDE]
Output: 5.45

Input: // fetch ERYTHROCYTE COUNT given entry CCC(=O)O[C@]1(C(=O)CCl)[C@@H](C)C[C@H]2[C@@H]3CCC4=CC(=O)C=C[C@]4(C)[C@@]3(F)[C@@H](O)C[C@@]21C [CLOBETASOL PROPIONATE]
Output: 5.63

Input: Retrieve ERYTHROCYTE COUNT measured for O=C(Nc1ccc(Br)cc1)c1cc(Br)cc(Br)c1O and print it.
Output: 5.63

Input: Entry Oc1c(Cl)cc(Cl)c(Cl)c1Cc1c(O)c(Cl)cc(Cl)c1Cl needs its ERYTHROCYTE COUNT filled in; supply it.
Output: 5.45

Input: Recall and state the measured ERYTHROCYTE COUNT for CCN(CC)CCOCCC1=CCC2CC1C2(C)C (stereo not given) .
Output: 5.31
